- assayed-system: human mGlu2 receptor (Homo sapiens)
- Sequence (Q14416 19-872): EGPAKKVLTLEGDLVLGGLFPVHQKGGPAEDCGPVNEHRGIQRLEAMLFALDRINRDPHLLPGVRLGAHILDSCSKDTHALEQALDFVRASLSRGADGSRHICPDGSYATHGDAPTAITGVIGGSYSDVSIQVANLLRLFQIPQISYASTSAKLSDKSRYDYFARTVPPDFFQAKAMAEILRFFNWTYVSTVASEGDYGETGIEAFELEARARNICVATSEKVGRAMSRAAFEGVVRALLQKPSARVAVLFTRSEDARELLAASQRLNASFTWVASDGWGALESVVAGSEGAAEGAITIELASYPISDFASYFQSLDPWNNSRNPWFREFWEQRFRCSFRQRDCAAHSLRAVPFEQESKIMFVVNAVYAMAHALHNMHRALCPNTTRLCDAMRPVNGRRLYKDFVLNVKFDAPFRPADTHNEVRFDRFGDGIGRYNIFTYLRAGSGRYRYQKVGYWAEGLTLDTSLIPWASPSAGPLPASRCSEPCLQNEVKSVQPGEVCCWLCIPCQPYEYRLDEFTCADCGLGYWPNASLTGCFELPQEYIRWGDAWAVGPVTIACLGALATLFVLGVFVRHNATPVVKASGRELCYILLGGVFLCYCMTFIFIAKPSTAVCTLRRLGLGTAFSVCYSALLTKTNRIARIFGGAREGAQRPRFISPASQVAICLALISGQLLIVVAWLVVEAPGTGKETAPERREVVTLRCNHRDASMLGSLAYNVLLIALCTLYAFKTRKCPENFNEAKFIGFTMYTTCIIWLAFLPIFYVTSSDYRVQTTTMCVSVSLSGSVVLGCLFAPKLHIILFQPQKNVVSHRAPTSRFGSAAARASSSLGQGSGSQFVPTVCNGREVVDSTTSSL
- experiment: [35S]GTPγS binding assay, mGluR2 negative allosteric modulation (membranes from CHO cells transfected with human mGlu2 receptor, glutamate ~EC80 60 μM)
- experimental-conditions: read-out: GTPγS - hmGluR2 anGT Emax, relative maximal effect: maximal % inhibition relative to the control glutamate response
test-readout: Emax (%)

Query string: Entry COCc1cc(N2C[C@H](C)n3ncc(C(=O)Nc4ccccn4)c3C2=O)ccc1C(F)(F)F : reported Emax = ?
Result string: 109

Query string: Entry O=C(Nc1cccnc1)c1cnn2c1C(=O)N(c1ccc(C(F)(F)F)cc1)CC2 : reported Emax = ?
Result string: 111

Query string: Entry COCC1CN(c2ccc(C(F)(F)F)c(Cl)c2)C(=O)c2c(C(=O)Nc3cccnc3)cnn21 (stereo not shown) [compound 164] : reported Emax = ?
Result string: 108

Query string: Entry C[C@H]1CN(c2ccc(C(F)(F)F)cc2)C(=O)c2c(C(=O)NCC3CCOC3)cnn21 (stereo partly shown) : reported Emax = ?
Result string: 107

Query string: Entry Cc1cc(NC(=O)c2cnn3c2C(=O)N(c2ccc(Cl)cc2)C[C@@H]3C)ccn1 : reported Emax = ?
Result string: 107

Query string: Entry C[C@H]1CN(c2ccc(C(F)(F)F)cc2)C(=O)c2c(C(=O)NC3CCOCC3)cnn21 : reported Emax = ?
Result string: 103

Query string: Entry C[C@H]1CN(c2ccc(C(F)(F)F)c(Cl)c2)C(=O)c2c(C(=O)Nc3ccccn3)cnn21 : reported Emax = ?
Result string: 113

Query string: Entry C[C@H]1CN(c2ccc(C(F)(F)F)c(F)c2)C(=O)c2c(C(=O)Nc3ccc(F)cn3)cnn21 : reported Emax = ?
Result string: 106

Query string: Entry C[C@H]1CN(c2ccc(C(F)(F)F)cc2)C(=O)c2c(C(=O)NCc3ccc(N)nc3)cnn21 : reported Emax = ?
Result string: 104

Query string: Entry C[C@H]1CN(c2ccc(C(F)(F)F)c(Cl)c2)C(=O)c2c(C(=O)Nc3ccc(F)cn3)cnn21 : reported Emax = ?
Result string: 104

Query string: Entry C[C@H]1CN(c2ccc(C(F)(F)F)cc2)C(=O)c2c(C(=O)Nc3ncco3)cnn21 : reported Emax = ?
Result string: 109

Query string: Entry C[C@H]1CN(c2ccc(C(F)(F)F)cc2)C(=O)c2c(C(=O)NCC3CCOCC3)cnn21 : reported Emax = ?
Result string: 106

Query string: Entry C[C@H]1CN(c2ccc(C(F)(F)F)cc2)C(=O)c2c(C(=O)Nc3ccc(S(C)(=O)=O)cc3)cnn21 : reported Emax = ?
Result string: 107

Query string: Entry C[C@H]1CN(c2ccc(C(F)(F)F)cc2)C(=O)c2c(C(=O)NC3CCC3)cnn21 : reported Emax = ?
Result string: 111

Query string: Entry C[C@H]1CN(c2ccc(C(F)(F)F)cc2)C(=O)c2c(C(=O)Nc3cccnc3)cnn21 : reported Emax = ?
Result string: 111

Query string: Entry COc1cncc(NC(=O)c2cnn3c2C(=O)N(c2ccc(C(F)(F)F)c(C)c2)C[C@@H]3C)c1 : reported Emax = ?
Result string: 111

* * *

- assayed-system: human mGlu2 receptor (Homo sapiens)
- experiment: [35S]GTPγS binding assay, mGluR2 negative allosteric modulation (membranes from CHO cells transfected with human mGlu2 receptor, glutamate ~EC80 60 μM);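 also: membranes preincubated 30 min at 30 °C with compound plus glutamate, then [35S]GTPγS (0.1 nM) incorporation measured over another 30 min at 30 °C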
- experimental-conditions: read-out: GTPγS - hmGluR2 anGT Emax, relative maximal effect: maximal % inhibition relative to the control glutamate response
test-readout: Emax (%)

Query string: Entry COc1cnccc1NC(=O)c1cnn2c1C(=O)N(c1ccc(C(F)(F)F)cc1)C[C@@H]2C : reported Emax = ?
Result string: 115

Query string: Entry C[C@H]1CN(c2ccc(C(F)(F)F)cc2)C(=O)c2c(C(=O)NCC3CCCO3)cnn21 (some centres unmarked) : reported Emax = ?
Result string: 104

Query string: Entry C[C@H]1CN(c2ccc(C(F)(F)F)cc2)C(=O)c2c(C(N)=O)cnn21 : reported Emax = ?
Result string: 95

Query string: Entry C[C@H]1CN(c2ccc(C(F)(F)F)c(Cl)c2)C(=O)c2c(C(=O)Nc3cncc(F)c3)cnn21 : reported Emax = ?
Result string: 108

Query string: Entry C[C@H]1CN(c2ccc(C(F)(F)F)cc2)C(=O)c2c(C(=O)Nc3ncccn3)cnn21 : reported Emax = ?
Result string: 104

Query string: Entry Cc1cc(NC(=O)c2cnn3c2C(=O)N(c2ccc(C(F)(F)F)cn2)C[C@@H]3C)ccn1 : reported Emax = ?
Result string: 106

Query string: Entry C[C@H]1CN(c2ccc(C(F)(F)F)cc2)C(=O)c2c(C(=O)NC=O)cnn21 : reported Emax = ?
Result string: 103

Query string: Entry C[C@H]1CN(c2ccc(OC(F)(F)F)c(Cl)c2)C(=O)c2c(C(=O)Nc3cccnc3)cnn21 : reported Emax = ?
Result string: 108

Query string: Entry C[C@H]1CN(c2ccc(C(F)(F)F)cc2)C(=O)c2c(C(=O)NC(C)(C)C)cnn21 : reported Emax = ?
Result string: 102

Query string: Entry COc1cncc(NC(=O)c2cnn3c2C(=O)N(c2ccc(C(F)(F)F)cc2)C[C@@H]3C)c1 : reported Emax = ?
Result string: 114

Query string: Entry COCC1CN(c2ccc(C(F)(F)F)c(Cl)c2)C(=O)c2c(C(=O)Nc3cccnc3)cnn21 (single isomer, unassigned) [compound 157] : reported Emax = ?
Result string: 104

Query string: Entry C[C@H]1CN(c2ccc(C(F)(F)F)cc2)C(=O)c2c(C(=O)Nc3ccc(N)nc3)cnn21 : reported Emax = ?
Result string: 104

Query string: Entry CC(=O)NC(=O)c1cnn2c1C(=O)N(c1ccc(C(F)(F)F)cc1)C[C@@H]2C : reported Emax = ?
Result string: 114

Query string: Entry C[C@H]1CN(c2ccc(C(F)(F)F)cc2)C(=O)c2c(C(=O)Nc3cccc(S(C)(=O)=O)c3)cnn21 : reported Emax = ?
Result string: 103

Query string: Entry Cc1cc(NC(=O)c2cnn3c2C(=O)N(c2ccccc2)C[C@@H]3C)ccn1 : reported Emax = ?
Result string: 114

Query string: Entry COc1cc(N2C[C@H](C)n3ncc(C(=O)Nc4cc(C)nc(C)c4)c3C2=O)ccc1C(F)(F)F : reported Emax = ?
Result string: 116

Query string: Entry Cc1c(F)cncc1NC(=O)c1cnn2c1C(=O)N(c1ccc(C(F)(F)F)c(Cl)c1)C[C@@H]2C : reported Emax = ?
Result string: 105

Query string: Entry Cc1cc(N2C[C@H](C)n3ncc(C(=O)Nc4cnccn4)c3C2=O)ccc1C(F)(F)F : reported Emax = ?
Result string: 106

Query string: Entry C[C@H]1CN(c2ccc(C(F)(F)F)cc2)C(=O)c2c(C(=O)Nc3ncc[nH]3)cnn21 : reported Emax = ?
Result string: 110

Query string: Entry Cc1cc(N2C[C@H](C)n3ncc(C(=O)Nc4cncc(F)c4C)c3C2=O)ccc1C(F)(F)F : reported Emax = ?
Result string: 110

Query string: Entry CNC(=O)c1cnn2c1C(=O)N(c1ccc(C(F)(F)F)cc1)C[C@@H]2C : reported Emax = ?
Result string: 103

Query string: Entry C[C@H]1CN(c2ccc(C(F)(F)F)cc2)C(=O)c2c(C(=O)Nc3ccc(F)cc3)cnn21 : reported Emax = ?
Result string: 103

Query string: Entry Cc1cncc(NC(=O)c2cnn3c2C(=O)N(c2ccc(C(F)(F)F)c(Cl)c2)C[C@@H]3C)c1C : reported Emax = ?
Result string: 108

Query string: Entry C[C@H]1CN(c2ccc(C(F)(F)F)cc2)C(=O)c2c(C(=O)Nc3ccncc3F)cnn21 : reported Emax = ?
Result string: 117

Query string: Entry Cc1cc(N2C[C@H](C)n3ncc(C(=O)Nc4cncc(F)c4C)c3C2=O)ccc1Cl : reported Emax = ?
Result string: 112

Query string: Entry COCC1CN(c2ccc(C(F)(F)F)cc2)C(=O)c2c(C(=O)Nc3cnccn3)cnn21 (centres unmarked) : reported Emax = ?
Result string: 107

Query string: Entry C[C@H]1CN(c2ccc(C(F)(F)F)cc2)C(=O)c2c(C(=O)Nc3cncc(F)c3)cnn21 : reported Emax = ?
Result string: 110

Query string: Entry Cc1cc(NC(=O)c2cnn3c2C(=O)N(c2ccc(Cl)c(C)c2)C[C@@H]3C)cc(C)n1 : reported Emax = ?
Result string: 112

Query string: Entry Cc1cc(NC(=O)c2cnn3c2C(=O)N(c2ccc(C(F)(F)F)c(C)c2)C[C@@H]3C)cc(C)n1 : reported Emax = ?
Result string: 109

Query string: Entry COc1cccnc1NC(=O)c1cnn2c1C(=O)N(c1ccc(C(F)(F)F)cc1)C[C@@H]2C : reported Emax = ?
Result string: 109

Query string: Entry Cc1ccncc1NC(=O)c1cnn2c1C(=O)N(c1ccc(Cl)c(Cl)c1)C[C@@H]2C : reported Emax = ?
Result string: 111

Query string: Entry C[C@H]1CN(c2ccc(C(F)(F)F)cc2)C(=O)c2c(C(=O)Nc3ccnc(CF)c3)cnn21 : reported Emax = ?
Result string: 115

Data provenance: patent US20200121677A1
